Consider the following binders and their measured EC50 readings.
- target-or-system: T1, cynomolgus monkey Nectin-4 (cynomolgus monkey, UniProt Q96NY8 32-510 (human entry))
- T1 construct: Transiently expressed on 293T cells; also called Cyno Nectin-4
- T1 chain: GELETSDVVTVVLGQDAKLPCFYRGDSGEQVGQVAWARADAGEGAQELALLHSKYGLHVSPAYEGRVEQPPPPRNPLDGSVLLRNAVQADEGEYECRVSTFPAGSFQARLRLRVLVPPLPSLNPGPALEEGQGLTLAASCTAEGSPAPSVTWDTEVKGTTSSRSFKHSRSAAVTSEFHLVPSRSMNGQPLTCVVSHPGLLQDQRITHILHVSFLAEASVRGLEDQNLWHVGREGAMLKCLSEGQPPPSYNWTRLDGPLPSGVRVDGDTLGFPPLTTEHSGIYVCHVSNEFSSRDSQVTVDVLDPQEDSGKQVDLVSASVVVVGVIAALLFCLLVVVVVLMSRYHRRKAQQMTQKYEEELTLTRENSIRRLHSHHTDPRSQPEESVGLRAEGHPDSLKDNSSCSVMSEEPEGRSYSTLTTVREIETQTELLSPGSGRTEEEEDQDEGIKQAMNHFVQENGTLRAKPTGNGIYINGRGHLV
- test-method-notes: flow cytometry, transfected 293T cells; +++ EC50 less than 5 nM

binder: N4_mAb 3 (antibody, human IgG1, V domains shown, Tested as chimera (human IgG1/kappa constants); not shown: human IgG1 constant region (Uniprot P01857); human Kappa light chain constant region (UniProt P01834)) VH: EVQLQQSGAELVKPGASVKLSCTVSGFNIKDTYMHWVKQRPEQGLEWIGRIDPANGNTKYDPKFQGKATIIADKASNTAYLQLSSLTSEDAAVYYCAHYYGSSYFAMDCWGQGTSVTVSS VL: DIVMTQSHKFMSTSVGDRVSITCKASQDVSTAVAWYQQKPGQSPKLLIYWASTRHTGVPDRFTGSGSGTDYTLTISSVQTEDLALYYCQQHYSTPLTFGAGTKLELK
EC50: < 5 nM
--
binder: N4_mAb 6 (antibody, human IgG1, V domains shown, Tested as chimera (murine variable regions, human IgG1/kappa constants); not shown: human IgG1 constant region (Uniprot P01857); human Kappa light chain constant region (UniProt P01834)) VH: QVQLQQSGPELVKPGASVRISCKASGYTFTTYYIHWVKQRPGQGLEWIGWIYPGNVNTKYTENFKDKATLTADKSSSTAYMQLSSLTSEDSAVYFCARGLYYFDFWGQGTTLTVSS VL: SIVMTQTPKFLLVSAGDRVTITCKASQSVNNDVAWYQQKPGQSPKLLIYYASNRDTGVPDRFTGSGFGTDFTFTISSVQAEDLAVYFCQQDYSSPYTFGGGTKLEIK
EC50: < 5 nM
